Provenance of the data: patent US20070009597A1

- TEST_SYSTEM: recombinant human 5HT6 receptor (Homo sapiens, UniProt P50406)
- Construct: purchased Receptor Biology; host or cells: HEK-293
- Sequence (P50406 whole entry): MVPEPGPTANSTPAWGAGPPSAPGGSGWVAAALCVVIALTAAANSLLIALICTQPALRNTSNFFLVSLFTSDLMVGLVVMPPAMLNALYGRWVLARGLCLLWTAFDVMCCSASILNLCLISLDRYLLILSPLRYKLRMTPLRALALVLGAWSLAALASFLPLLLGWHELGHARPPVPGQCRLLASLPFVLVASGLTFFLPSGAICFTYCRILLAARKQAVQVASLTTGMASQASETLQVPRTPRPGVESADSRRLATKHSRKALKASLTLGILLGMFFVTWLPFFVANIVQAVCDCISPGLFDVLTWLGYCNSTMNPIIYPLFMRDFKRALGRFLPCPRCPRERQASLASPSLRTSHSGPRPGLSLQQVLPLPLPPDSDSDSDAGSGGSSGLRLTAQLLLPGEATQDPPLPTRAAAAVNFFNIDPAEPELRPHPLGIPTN
- MEASUREMENT_PROTOCOL: Binding to the 5HT6 serotonin receptor ([3H]-LSD, HEK-293 cell membranes)
- CONDITION_SUMMARY: table 1h, compounds of general formula (Ih)
Give Ki for every item shown.
// units = nM; emit number, no label

stdin: For the record O=S(=O)(C1CCCCC1)n1cc(C2=CCN3CCCC3C2)c2cc(F)ccc21 (centres unmarked) , what value of Ki is listed for recombinant human 5HT6 receptor (Homo sapiens, UniProt P50406)?
stdout: 191

stdin: For the record "CN1CC=C(c2cn(S(=O)(=O)C3CCCCC3)c3ccc(N)cc23)CC1" , what value of Ki is listed for recombinant human 5HT6 receptor (Homo sapiens, UniProt P50406)?
stdout: 55.1

* * *

Give inhibition at 1 µM for every item shown.
- TEST_SYSTEM: recombinant human 5HT6 receptor (Homo sapiens)
- Construct: purchased Receptor Biology; host or cells: HEK-293
- MEASUREMENT_PROTOCOL: Binding to the 5HT6 serotonin receptor ([3H]-LSD, HEK-293 cell membranes)
- CONDITION_SUMMARY: 10^−6 M; table 1f, compounds of general formula (If); read-out: % Inhibition 10^−6 M
// units = %; emit number, no label

stdin: What value of measured inhibition at 1 µM is listed for "Cc1c(S(=O)(=O)Nc2ccc3ccn(CCN(C)C)c3c2)sc2ccc(Cl)cc12" ?
stdout: 98.6

stdin: What value of measured inhibition at 1 µM is listed for "CN(C)CCn1ccc2ccc(NS(=O)(=O)c3c(Cl)nc4sccn34)cc21" ?
stdout: 90.8

stdin: What value of measured inhibition at 1 µM is listed for "CN(C)CCn1ccc2ccc(NS(=O)(=O)c3cc(Cl)cc(Cl)c3)cc21" ?
stdout: 86.9

stdin: What value of measured inhibition at 1 µM is listed for "CN(C)CCn1ccc2ccc(NS(=O)(=O)c3ccc(-c4ccccc4)cc3)cc21" ?
stdout: 93.4

stdin: What value of measured inhibition at 1 µM is listed for "CN(C)CCn1ccc2ccc(NS(=O)(=O)CCc3cccc4ccccc34)cc21" ?
stdout: 94.5

* * *

- TEST_SYSTEM: recombinant human 5HT6 receptor (Homo sapiens, UniProt P50406)
- Construct: purchased Receptor Biology; host or cells: HEK-293
- MEASUREMENT_PROTOCOL: Binding to the 5HT6 serotonin receptor ([3H]-LSD, HEK-293 cell membranes)
- CONDITION_SUMMARY: table 1c, compounds of general formula (Ic)
MEASURED_ATTRIBUTE: log10 of Ki (log10 of the value in nM)
Form field - Quantity: Ki; Unit: nM; Scale: log10

stdin: What value of measured log10 of Ki is listed for CCN(CC)CCc1c[nH]c2ccc(NS(=O)(=O)c3ccc4ccccc4c3)cc12 [Example 17c] ?
stdout: 0.72

stdin: What value of measured log10 of Ki is listed for CN1CCC(c2c[nH]c3ccc(NS(=O)(=O)c4cccc5cccnc45)cc23)CC1 [Example 16c] ?
stdout: 1.33

stdin: What value of measured log10 of Ki is listed for "CCN(CC)CCc1c[nH]c2ccc(NS(=O)(=O)c3cccc4ccccc34)cc12" ?
stdout: 0.54

stdin: What value of measured log10 of Ki is listed for "CCN(CC)CCc1c[nH]c2ccc(NS(=O)(=O)c3cc(Cl)cc(Cl)c3)cc12" ?
stdout: 0.97

stdin: What value of measured log10 of Ki is listed for "CCN(CC)CCc1c[nH]c2ccc(NS(=O)(=O)c3ccc(-c4ccccc4)cc3)cc12" ?
stdout: 0.00

stdin: What value of measured log10 of Ki is listed for CN1CCC(c2c[nH]c3ccc(NS(=O)(=O)c4ccc(Cl)s4)cc23)CC1 [Example 14c] ?
stdout: 1.39

stdin: What value of measured log10 of Ki is listed for CN1CCC(c2c[nH]c3ccc(NS(=O)(=O)c4ccc(-c5ccccc5)cc4)cc23)CC1 [Example 15c] ?
stdout: 0.83
